Data origin, for the record: paper PMC9994103

Biological target: CRBN, human thalidomide binding domain (hTBD) (Homo sapiens)
Sequence (Q96SW2 318-426 limits assumed): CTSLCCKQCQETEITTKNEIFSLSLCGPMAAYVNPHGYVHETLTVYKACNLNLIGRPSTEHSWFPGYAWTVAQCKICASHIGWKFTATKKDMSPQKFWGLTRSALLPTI
Assay: Competitive MST CRBN binding assay with reporter BODIPY-uracil
Reported Ki values follow for various compounds
Report the figure in µM without appending any unit label.

CC(=O)NC1CCC(=O)NC1=O (centres unmarked) | 247

Turning now to a further record.
Given the compound N#CC(c1ccc(CNc2cccc3c2CN(C2CCC(=O)NC2=O)C3=O)cc1)N1CCOCC1 (centres unmarked) , write its reported Ki.
2

----------
Reported pIC50 values follow for various compounds
Target: CRBN, human thalidomide binding domain (hTBD) (Homo sapiens)
Assay: Competitive MST CRBN binding assay with reporter BODIPY-uracil
Would you please state pIC50, meaning minus log10 of the concentration in mol/L, as a bare number?

CC(=O)NC1CCC(=O)NC1=O (centres unmarked) | 3.32

Turning now to a further record.
Given the compound N#CC(c1ccc(CNc2cccc3c2CN(C2CCC(=O)NC2=O)C3=O)cc1)N1CCOCC1 (centres unmarked) , write its reported pIC50.
4.98
